ASSAY_TARGET: ΔF508-CFTR (Homo sapiens, UniProt P13569, DEL508-508)
Construct: Fisher rat epithelial (FRT) cells for Ussing chamber follow-up
Sequence (P13569 with tags, fused parts or gaps DEL508-508): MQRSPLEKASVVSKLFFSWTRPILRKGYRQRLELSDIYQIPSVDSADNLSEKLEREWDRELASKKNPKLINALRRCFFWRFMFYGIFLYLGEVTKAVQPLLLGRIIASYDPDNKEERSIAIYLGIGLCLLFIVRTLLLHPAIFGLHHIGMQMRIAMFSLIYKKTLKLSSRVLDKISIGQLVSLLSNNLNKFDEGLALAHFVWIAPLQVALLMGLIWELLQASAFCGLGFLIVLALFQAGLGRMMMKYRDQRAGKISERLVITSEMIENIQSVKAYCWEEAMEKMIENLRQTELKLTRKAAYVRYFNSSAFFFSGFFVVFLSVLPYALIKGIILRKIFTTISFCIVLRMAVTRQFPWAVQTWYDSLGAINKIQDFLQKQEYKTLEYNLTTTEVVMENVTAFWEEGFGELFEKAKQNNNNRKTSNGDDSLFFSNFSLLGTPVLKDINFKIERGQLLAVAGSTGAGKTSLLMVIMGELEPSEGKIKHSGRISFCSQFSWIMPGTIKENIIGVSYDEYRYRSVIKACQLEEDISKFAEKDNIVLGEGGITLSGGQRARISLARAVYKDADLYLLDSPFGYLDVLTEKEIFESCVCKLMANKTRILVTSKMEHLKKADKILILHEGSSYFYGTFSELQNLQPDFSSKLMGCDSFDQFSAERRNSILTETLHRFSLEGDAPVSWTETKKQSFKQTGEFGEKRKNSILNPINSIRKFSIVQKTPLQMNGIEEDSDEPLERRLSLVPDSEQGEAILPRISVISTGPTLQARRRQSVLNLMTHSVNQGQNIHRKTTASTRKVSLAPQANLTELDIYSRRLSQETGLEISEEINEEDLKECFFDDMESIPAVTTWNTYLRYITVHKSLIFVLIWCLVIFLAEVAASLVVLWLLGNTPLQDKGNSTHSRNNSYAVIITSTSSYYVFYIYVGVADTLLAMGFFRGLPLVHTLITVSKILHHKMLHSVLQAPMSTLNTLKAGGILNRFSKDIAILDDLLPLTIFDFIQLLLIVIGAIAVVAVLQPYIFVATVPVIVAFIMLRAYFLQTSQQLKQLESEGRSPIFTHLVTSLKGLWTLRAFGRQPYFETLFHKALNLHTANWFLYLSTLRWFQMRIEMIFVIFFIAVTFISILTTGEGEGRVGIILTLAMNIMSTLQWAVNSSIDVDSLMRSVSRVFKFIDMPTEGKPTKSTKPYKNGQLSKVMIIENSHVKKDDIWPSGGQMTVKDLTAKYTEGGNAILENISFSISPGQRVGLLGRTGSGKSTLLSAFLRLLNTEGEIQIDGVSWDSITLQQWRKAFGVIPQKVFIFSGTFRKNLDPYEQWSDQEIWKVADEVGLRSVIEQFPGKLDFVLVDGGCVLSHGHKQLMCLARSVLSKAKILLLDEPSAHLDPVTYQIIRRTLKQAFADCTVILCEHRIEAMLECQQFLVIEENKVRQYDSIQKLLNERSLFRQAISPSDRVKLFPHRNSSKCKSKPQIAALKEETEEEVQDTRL
ASSAY_EXPLANATION: Assays for ΔF508-CFTR correction and potentiator properties (membrane potential optical and electrophysiological methods)
RUN_CONDITIONS: CFTR modulation, tested using the above methods
pEC50: −log10 of the molar value.
Measured pEC50 of individual entries

Example cases with answers are listed next.
- COMPOUND: "CC(C(=O)Nc1ncc(Cc2cccc(Cl)c2)s1)c1ccccc1 (centres unmarked)"
  VALUE_KIND: "pEC50"
  RESULT: "> 5.00"
- COMPOUND: "O=C(Nc1nc(-c2ccc(Cl)cc2)c(-c2ccccc2)s1)c1ccccc1"
  VALUE_KIND: "pEC50"
  RESULT: "> 5.00"
- COMPOUND: "CC(C)C(C(=O)Nc1ncc(Cc2ccccc2Cl)o1)c1ccccc1 (centres unmarked)"
  VALUE_KIND: "pEC50"
  RESULT: "4.60 to 5.00"
- COMPOUND: "O=C(O)CCCC(=O)Nc1nc(-c2ccccc2)c(-c2ccccc2)s1"
  VALUE_KIND: "pEC50"
  RESULT: "4.60 to 5.00"
- COMPOUND: "CCC(C)C(C(=O)Nc1nc(-c2ccccc2)cs1)c1ccccc1 (centres unmarked)"
  VALUE_KIND: "pEC50"
  RESULT: "> 5.00"

Incoming: ΔF508-CFTR (Homo sapiens, UniProt P13569, DEL508-508) / pEC50 / CC(C(=O)Nc1ncc(Cc2ccc(Cl)cc2)s1)c1ccccc1 (centres unmarked) : value?
Outgoing: > 5.00

Incoming: Request - read-out pEC50 | tested on ΔF508-CFTR (Homo sapiens, UniProt P13569, DEL508-508) | compound CCC(C(=O)Nc1ncc(Cc2ccccc2Cl)s1)N1CCCCC1 (centres unmarked)
Outgoing: > 5.00

Incoming: Record lookup: for ΔF508-CFTR (Homo sapiens, UniProt P13569, DEL508-508), what pEC50 belongs to CCC(C)C(C(=O)Nc1ncc(Cc2cccc(Cl)c2)o1)c1ccccc1 (centres unmarked) ?
Outgoing: > 5.00

Incoming: What pEC50 appears in the records for this compound with ΔF508-CFTR (Homo sapiens, UniProt P13569, DEL508-508)? COc1cccc(-c2csc(NC(=O)c3ccccc3OC)n2)c1
Outgoing: 4.60 to 5.00

Incoming: Please state recorded pEC50 (tested on ΔF508-CFTR (Homo sapiens, UniProt P13569, DEL508-508)) of Cc1cccc(C(=O)Nc2ncc(-c3ccccc3)s2)c1
Outgoing: 4.60 to 5.00

----------
ASSAY_TARGET: ΔF508-CFTR (Homo sapiens, UniProt P13569, DEL508-508)
Construct: expressed in transfected cells; host or cells: NIH3T3 mouse fibroblasts stably expressing ΔF508-CFTR for the optical, whole-cell and single-channel assays; Fisher rat epithelial (FRT) cells for Ussing chamber follow-up
ASSAY_EXPLANATION: Assays for ΔF508-CFTR correction and potentiator properties (membrane potential optical and electrophysiological methods)
Format: cell-based
RUN_CONDITIONS: CFTR modulation, % Efficacy
Text: Assays for Detecting and Measuring ΔF508-CFTR Correction and Potentiator Properties of Compounds A) Membrane Potential Optical Methods for Assaying ΔF508-CFTR Modulation Properties of Compounds […] These voltage sensitive assays are based on the change in fluorescence resonant energy transfer (FRET) between the membrane-soluble, voltage-sensitive dye, DiSBAC2 (3), and a fluorescent phospholipid, CC2-DMPE, which is attached to the outer leaflet of the plasma membrane and acts as a FRET donor. […]
VALUE_KIND: % Activity

- MOLECULAR_STRING: "COC(=O)c1ccccc1C(=O)Nc1nc(-c2ccccc2)c(-c2ccccc2)s1"
  RESULT: "+++ (“+++” means >100%)"
- MOLECULAR_STRING: "CCc1ccccc1OCC(=O)Nc1nc2ccccc2s1"
  RESULT: "+++ (“+++” means >100%)"
- MOLECULAR_STRING: "CC(C)(C(=O)Nc1ncc(Cc2ccccc2Cl)s1)c1ccccc1"
  RESULT: "+++ (“+++” means >100%)"

----------
ASSAY_TARGET: ΔF508-CFTR (Homo sapiens, UniProt P13569, DEL508-508)
Construct: expressed in transfected cells; host or cells: NIH3T3 mouse fibroblasts stably expressing ΔF508-CFTR for the optical, whole-cell and single-channel assays; Fisher rat epithelial (FRT) cells for Ussing chamber follow-up
ASSAY_EXPLANATION: Assays for ΔF508-CFTR correction and potentiator properties (membrane potential optical and electrophysiological methods)
Assay type: cell-based
RUN_CONDITIONS: CFTR modulation, tested using the above methods
Description: Assays for Detecting and Measuring ΔF508-CFTR Correction and Potentiator Properties of Compounds A) Membrane Potential Optical Methods for Assaying ΔF508-CFTR Modulation Properties of Compounds […] These voltage sensitive assays are based on the change in fluorescence resonant energy transfer (FRET) between the membrane-soluble, voltage-sensitive dye, DiSBAC2 (3), and a fluorescent phospholipid, CC2-DMPE, which is attached to the outer leaflet of the plasma membrane and acts as a FRET donor. […]
pEC50: −log10 of the molar value.
Below is a list of entries, each paired with its recorded pEC50 value.

Recorded pEC50, per entry:
- COMPOUND: "CC1CCCN(C(C(=O)Nc2ncc(Cc3ccccc3Cl)s2)c2ccccc2)C1 (stereo not shown) [compound 243]"
  RESULT: "> 5.00"
- COMPOUND: "CN(Cc1ccccc1)C(C(=O)Nc1ncc(Cc2ccccc2Cl)s1)c1ccccc1 (stereo not shown) [compound 254]"
  RESULT: "> 5.00"
- COMPOUND: "COc1ccccc1Cc1cnc(NC(=O)C(c2ccccc2)C2CCCCC2)o1 (stereo not shown) [compound 179]"
  RESULT: "4.60 to 5.00"
- COMPOUND: "O=C(Nc1ncc(Cc2cccc(Cl)c2)o1)C(c1ccccc1)C1CCCC1 (stereo not shown) [compound 156]"
  RESULT: "> 5.00"
- COMPOUND: "O=C(Nc1nc(-c2ccccc2)c(-c2ccccc2)s1)c1c(F)cccc1F [compound 62]"
  RESULT: "> 5.00"
- COMPOUND: "COc1ccccc1Cc1cnc(NC(=O)C(c2ccccc2)C2CCCCC2)s1 (stereo not shown) [compound 132]"
  RESULT: "> 5.00"
- COMPOUND: "O=C(Nc1ncc(Cc2ccc(Cl)cc2)s1)C(c1ccccc1)C1CCCCC1 (stereo not shown) [compound 117]"
  RESULT: "> 5.00"
- COMPOUND: "CCOc1ccc2nc(NC(=O)C3CCCCC3)sc2c1 [compound 1]"
  RESULT: "4.60 to 5.00"

Incoming: For the compound shown here, COC(C(=O)Nc1ncc(Cc2ccccc2Cl)s1)c1ccccc1 (stereo not shown) [compound 216] , give the reported pEC50.
Outgoing: 4.60 to 5.00

Incoming: Given the entry O=C(Nc1ncc(Cc2ccc(Cl)cc2)s1)C(c1ccc(Cl)cc1)c1ccc(Cl)cc1 [compound 118] , report its measured pEC50.
Outgoing: > 5.00

Incoming: Name the reported pEC50 value associated with the compound CCC(C)C(C(=O)Nc1ncc(Cc2ccccc2)s1)c1ccccc1 (stereo not shown) [compound 98]
Outgoing: > 5.00

Incoming: If you can, please state the reported pEC50 value of CCC(C(=O)Nc1nc(-c2ccccc2)cs1)c1ccccc1 (stereo not shown) [compound 167] .
Outgoing: > 5.00

Incoming: Give the measured pEC50 of CCC(C(=O)Nc1ncc(Cc2cccc(Cl)c2)s1)c1ccccc1 (stereo not shown) [compound 128] .
Outgoing: > 5.00

Incoming: Give the measured pEC50 of COc1ccccc1Cc1cnc(NC(=O)c2ccccc2)o1 [compound 185] .
Outgoing: 4.60 to 5.00

Incoming: // lookup pEC50 for O=C(Cc1ccccc1)Nc1ncc(Cc2ccccc2)s1 [compound 32]
Outgoing: 4.60 to 5.00

Incoming: Any idea what pEC50 was measured for CC(C(=O)Nc1nc(-c2ccccc2)c(-c2ccccc2)s1)c1ccccc1 (stereo not shown) [compound 172] ?
Outgoing: > 5.00

Incoming: Which pEC50 value is on record for CCC(C)C(C(=O)Nc1ncc(Cc2cccc(Cl)c2)s1)c1ccccc1 (stereo not shown) [compound 129] ?
Outgoing: > 5.00

Incoming: Given the entry COc1ccc(S(=O)(=O)N2CCN(C(C)C(=O)Nc3nc(-c4ccccc4)c(-c4ccccc4)s3)CC2)cc1 (stereo not shown) [compound 196] , report its measured pEC50.
Outgoing: > 5.00

Incoming: # lookup: pEC50 of CCC(C(=O)Nc1nc2ccc(S(C)(=O)=O)cc2s1)c1ccccc1 (stereo not shown) [compound 264]
Outgoing: 4.22 to 4.60

Incoming: Entry CC(C(=O)Nc1ncc(Cc2ccccc2Cl)o1)c1ccccc1 (stereo not shown) [compound 189] has what pEC50?
Outgoing: 4.22 to 4.60

----------
ASSAY_TARGET: ΔF508-CFTR (Homo sapiens, UniProt P13569, DEL508-508)
Construct: expressed in transfected cells; host or cells: NIH3T3 mouse fibroblasts stably expressing ΔF508-CFTR for the optical, whole-cell and single-channel assays; Fisher rat epithelial (FRT) cells for Ussing chamber follow-up
ASSAY_EXPLANATION: Assays for ΔF508-CFTR correction and potentiator properties (membrane potential optical and electrophysiological methods)
Type: cell-based
RUN_CONDITIONS: CFTR modulation, % Efficacy
VALUE_KIND: % Activity

- COMPOUND: "O=C(Cc1ccccc1)Nc1nc(-c2ccccc2)c(-c2ccccc2)s1"
  RESULT: "+++ (“+++” means >100%)"
- COMPOUND: "CC(C(=O)Nc1nc(-c2ccccc2)cs1)N1CCN(S(=O)(=O)c2ccc(Br)cc2)CC1 (stereo not drawn)"
  RESULT: "+++ (“+++” means >100%)"
- COMPOUND: "CCC(C(=O)Nc1ncc(Cc2cccc(Cl)c2)s1)c1ccccc1 (stereo not drawn)"
  RESULT: "+++ (“+++” means >100%)"
